experiment: Therapeutic index(TI) was evaluated (IC50/EC50); conditions: read-out: TI
Each entry below carries its recorded selectivity ratio.

{"columns": ["smilesRepr", "selectivity ratio"],
 "data": [
  ["COc1cc2c(c3ccccc3n2C)c2c(NCCN3CCCCC3)nccc12", 47.9],
  ["COc1cc2c(c3ccccc3n2C)c2c(Cl)nccc12", 136],
  ["COc1cc2c(c3ccccc3n2C)c2c(NCCN)nccc12", 10.6],
  ["COc1cc2c(c3ccccc3n2C)c2c(NCCCO)nccc12", 153],
  ["COc1cc2c(c3cnccc13)c1ccccc1n2C", 503]
]}

// selectivity ratio value for COc1cc2c(c3ccccc3n2C)c2c(NCCN(C)C)nccc12 : 8.9

// selectivity ratio value for COc1cc2c(c3cc(O)ccc3n2C)c2c(Cl)nccc12 : 3.6
